These data points were gathered from the supplement of paper PMC4862054.

Listed next: entries and their corresponding normalised response.
Test system: CAL-85-1
Assay: normalised response (% of control), CellTiter-Glo; higher = more viable cells (100 = DMSO, 0 = benzethonium chloride kill control)
Conditions: incubation time: 72 h
Enter your answer as a number in %; do not include the unit.

In: What value of normalised response has been reported for the following compound? Cn1c(Nc2ccc(C(F)(F)F)cc2)nc2cc(Oc3ccnc(-c4ncc(C(F)(F)F)[nH]4)c3)ccc21 [RAF265] (100 nM)
Out: 98.5

In: Requested read-out: normalised response. Entry: CN(N=O)C(=O)N[C@@H](C=O)[C@@H](O)[C@H](O)[C@H](O)CO [Streptozocin] (1 nM)
Out: 94.2

In: Reported normalised response for Cc1ccc(-n2nc(C(C)(C)C)cc2NC(=O)Nc2ccc(OCCN3CCOCC3)c3ccccc23)cc1 [Doramapimod] (1000 nM) : what is it?
Out: 121

In: # lookup: normalised response of O=C(CCCCCCC(=O)Nc1ccc([C@H]2O[C@@H](CSc3nc(-c4ccccc4)c(-c4ccccc4)o3)C[C@@H](c3ccc(CO)cc3)O2)cc1)NO [Tubacin] (10 nM)
Out: 103

In: Record request: normalised response value, item C#Cc1cccc(Nc2ncnc3cc(OCCOC)c(OCCOC)cc23)c1 [Erlotinib] (10 nM)
Out: 102

In: Can you share its normalised response? I mean this compound: Oc1nc(-c2ccc(C(F)(F)F)cc2)nc2c1CSCC2 [XAV-939] (10 nM)
Out: 98.7

In: So what's the measured normalised response for this one? N[C@@H](CSC(c1ccccc1)(c1ccccc1)c1ccccc1)C(=O)O [S-trityl-L-cysteine] (4000 nM)
Out: 99.8

In: Name the reported normalised response value associated with the compound O=C(O)c1ccc(-c2c[nH]c3ncc(-c4ccccc4)cc23)cc1C1CCCC1 (10 nM)
Out: 96.3

In: Need normalised response of O=P1(NCCCl)OCCCN1CCCl (configuration not stated) [Ifosfamide] (10 nM) , thanks.
Out: 100

In: Need normalised response, item CC1(C)NC(=O)N(c2ccc([N+](=O)[O-])c(C(F)(F)F)c2)C1=O [Nilutamide] (1000 nM)
Out: 98.5

In: I'd like to know its normalised response. The compound in question is N.N.[Cl][Pt][Cl] [Cisplatin] (0.1 nM)
Out: 97.2

In: Find the recorded normalised response belonging to COc1cc([C@@H]2c3cc4c(cc3[C@@H](O[C@@H]3O[C@@H]5CO[C@@H](C)O[C@H]5[C@H](O)[C@H]3O)[C@H]3COC(=O)[C@H]23)OCO4)cc(OC)c1O [Etoposide] (1 nM) and report it.
Out: 98.6
